Cited source: PubChem BioAssay AID2060896

Test system: 941728-121-R-J1-PDC complex spheroid viability
Assay: Anticancer human tumor 941728-121-R-J1-PDC patient-derived lung adenocarcinoma cell line growth inhibition [RAS]
Settings: second compound 0.1 µM; first compound 0.1 µM; hits give low values
Source text: RAS pathway inhibitors in Combinations in Complex Spheroids A high-throughput screen of multi-cell type tumor spheroids was designed to identify active combinations of RAS pathway inhibitors and targeted small molecules. Complex spheroids include a stromal component modeled by human endothelial cells (HUVEC) and fibroblasts modeled by human mesenchymal stem cells (MSCs). […] Compounds. […] If the clinical Cmax for an agent had not been determined, the highest concentration tested was 10 microM. […]
Hi there, I'd appreciate the recorded viability, T/C for every entry that follows.
Answers are plain numbers, in %.

Previously resolved entries follow.
1) Cc1nc(N2CCC3(CC2)COC(C)C3N)c(CO)nc1Sc1ccnc(N)c1Cl (stereo not given) + C#Cc1c(F)ccc2cc(O)cc(-c3ncc4c(N5CC6CCC(C5)N6)nc(OCC56CCCN5CC(F)C6)nc4c3F)c12 :: 37.8
2) CC(C)NCC(C(=O)N1CCN(c2ncnc3c2C(C)CC3O)CC1)c1ccc(Cl)cc1 (stereo not given) + C#Cc1c(F)ccc2cc(O)cc(-c3ncc4c(N5CC6CCC(C5)N6)nc(OCC56CCCN5CC(F)C6)nc4c3F)c12 :: 70.9
3) C=CC(=O)Nc1cc(Nc2nccc(-c3cn(C)c4ccccc34)n2)c(OC)cc1N(C)CCN(C)C + C#Cc1c(F)ccc2cc(O)cc(-c3ncc4c(N5CC6CCC(C5)N6)nc(OCC56CCCN5CC(F)C6)nc4c3F)c12 :: 40.9
4) CC(C)n1nc(-c2ccc3oc(N)nc3c2)c2c(N)ncnc21 + C#Cc1c(F)ccc2cc(O)cc(-c3ncc4c(N5CC6CCC(C5)N6)nc(OCC56CCCN5CC(F)C6)nc4c3F)c12 :: 26.6

For the next question, use this compound.
INPUT: For Nc1ccn(C2OC(CO)C(O)C2(F)F)c(=O)n1 (stereo not given) + C#Cc1c(F)ccc2cc(O)cc(-c3ncc4c(N5CC6CCC(C5)N6)nc(OCC56CCCN5CC(F)C6)nc4c3F)c12 , write its viability, T/C.
OUTPUT: 38.3

====

System: 941728-121-R-J1-PDC complex spheroid viability
Assay: Anticancer human tumor 941728-121-R-J1-PDC cell line growth inhibition [RAS];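 further: spheroids exposed to compounds for 7 days before readout; 100% = DMSO vehicle control viability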
Details: second compound 0.000949 µM; first compound 0.0949 µM; hits give low values
Hi there, I'd appreciate the recorded viability, T/C for every entry that follows.

Previously resolved entries follow.
1. CC1(C)CCC(Nc2ncc(C(F)(F)F)c(-c3c[nH]c4c(P(C)(C)=O)c(C#N)ccc34)n2)CN1 (centres undefined) + CCn1c(-c2cccnc2C(C)OC)c2c3cc(ccc31)N1CCOC(CC(NC(=O)C(C(C)C)N(C)C(=O)C3(F)CCN(C(=O)C#CC(C)(C)N(C)C)CC3)C(=O)N3CCCC(N3)C(=O)OCC(C)(C)C2)C1 :: 24.3%
2. CCc1c2c(nc3ccc(O)cc13)-c1cc3c(c(=O)n1C2)COC(=O)[C@]3(O)CC + CCn1c(-c2cccnc2C(C)OC)c2c3cc(ccc31)N1CCOC(CC(NC(=O)C(C(C)C)N(C)C(=O)C3(F)CCN(C(=O)C#CC(C)(C)N(C)C)CC3)C(=O)N3CCCC(N3)C(=O)OCC(C)(C)C2)C1 :: 11.7%
3. CCc1c2c(nc3ccc(O)cc13)-c1cc3c(c(=O)n1C2)COC(=O)[C@]3(O)CC + CCn1c(-c2cc(N3CCN(C)CC3)cnc2C(C)OC)c2c3cc(ccc31)-c1csc(n1)CC(NC(=O)C1CC1C)C(=O)N1CCCC(N1)C(=O)OCC(C)(C)C2 :: 18.1%

INPUT: For CC1(C)CCC(Nc2ncc(C(F)(F)F)c(-c3c[nH]c4c(P(C)(C)=O)c(C#N)ccc34)n2)CN1 (centres undefined) + CCn1c(-c2cc(N3CCN(C)CC3)cnc2C(C)OC)c2c3cc(ccc31)-c1csc(n1)CC(NC(=O)C1CC1C)C(=O)N1CCCC(N1)C(=O)OCC(C)(C)C2 , write its viability, T/C.
OUTPUT: 32.7%
